Provide the reported Plant response rating, Barnyardgrass of each item.
# Test system: barnyardgrass (Echinochloa crus-galli)
# protocol_notes: Test A postemergence, barnyardgrass
# Assay type: in vivo
# protocol_conditions: 500 g ai/ha, 0 to 100 scale, 0 no effect, 100 complete control
No unit in the answer, please; the number alone is enough.

Problem: For the record C[C@@H](Nc1ncc(C(F)(F)F)c(N)n1)c1cc2ccccc2n1C , what value of Plant response rating, Barnyardgrass is listed for barnyardgrass (Echinochloa crus-galli)?
Result: 0

Problem: Same question, CC(Nc1ncc(C(F)(F)F)c(N)n1)c1cc2c(Cl)cccc2o1 (stereo not shown) this time
Result: 90

Problem: Same question, C[C@H](Nc1nc(N)c(C(F)(F)F)c(C(F)(F)F)n1)c1cc2ccccc2o1 this time
Result: 30

Problem: Same question, Cc1nc(NC(C)c2coc3ccccc23)nc(N)c1C(F)(F)F (stereo not shown) this time
Result: 30

Problem: Same question, Cc1nc(NC(C)c2cc3ccccc3s2)nc(N)c1C(F)(F)F (stereo not shown) this time
Result: 60

Problem: Same question, CC(Nc1ncc(C(F)(F)F)c(N)n1)c1cc2ccc(Cl)cc2s1 (racemic) this time
Result: 70

Problem: Same question, CC[C@H](Nc1ncc(C(F)(F)F)c(N)n1)c1cc2ccc(F)cc2o1 this time
Result: 20

---

Provide the reported Ryegrass, Italian plant response rating of each item.
# Test system: ryegrass, Italian (Lolium multiflorum)
# protocol_notes: Test A preemergence, Italian ryegrass
# Assay type: in vivo
# protocol_conditions: 125 g ai/ha, 0 to 100 scale, 0 is no effect, 100 is complete control
No unit in the answer, please; the number alone is enough.

Problem: For the record CC[C@H](Nc1ncc(C(F)(F)F)c(N)n1)c1coc2ccccc12 , what value of Ryegrass, Italian plant response rating is listed for ryegrass, Italian (Lolium multiflorum)?
Result: 0

Problem: Same question, CC[C@@H](Nc1ncc(C(F)(F)F)c(N)n1)c1cc2ccc(F)cc2o1 this time
Result: 40

Problem: Same question, CC(=O)c1cnc(NC(C)c2cc3ccccc3s2)nc1N (stereo not shown) this time
Result: 20

Problem: Same question, Nc1nc(N[C@@H](c2cc3ccccc3s2)C2CC2)ncc1C(F)(F)F this time
Result: 70

---

Provide the reported Plant response rating, Kochia of each item.
# Test system: kochia (Kochia scoparia)
# protocol_notes: Test A postemergence, kochia
# Type: in vivo
# protocol_conditions: 500 g ai/ha, 0 to 100 scale, 0 no effect, 100 complete control
No unit in the answer, please; the number alone is enough.

Problem: Looking for the measured Plant response rating, Kochia of C[C@H](Nc1nc(N)c(C(F)(F)F)c(C(F)(F)F)n1)c1cc2ccccc2o1 [Compound 66] , can you help?
Result: 90

Problem: Same question, CC(Nc1ncc(C(F)(F)F)c(N)n1)c1coc2cc(Cl)ccc12 (racemic) [Compound 77] this time
Result: 90

Problem: Same question, Cc1ccc2c([C@H](Nc3ncc(C(F)(F)F)c(N)n3)C3CC3)coc2c1 [Compound 90] this time
Result: 90

---

# Test system: barnyardgrass (Echinochloa crus-galli)
# protocol_notes: Test B flooded paddy test, barnyardgrass
# Type: in vivo
# protocol_conditions: Echinochloa crus-galli, 360 h; Flood, 250 g ai/ha, applied to paddy water, 2-leaf stage, visual evaluation after 13 to 15 d; read-out: Plant response rating, Barnyardgrass (0 to 100 scale, 0 is no effect, 100 is complete control)
# Experimental: Plant species in the flooded paddy test selected from rice (Oryza sativa), sedge, umbrella (small-flower umbrella sedge, Cyperus difformis), ducksalad (Heteranthera limosa), and barnyardgrass (Echinochloa crus-galli) were grown to the 2-leaf stage for testing. […] Treated plants and controls were maintained in a greenhouse for 13 to 15 d, after which time all species were compared to controls and visually evaluated. […]
measurement_name: pest or weed control at 250 g/ha (%)
All answers are understood in %, so give the number only.

Problem: Looking for the measured pest or weed control at 250 g/ha of C[C@@H](Nc1ncc(C(F)(F)F)c(N)n1)c1cc2ccccc2o1 [Compound 22] , can you help?
Result: 40

Problem: Same question, C[C@@H](Nc1ncc(C(F)(F)F)c(N)n1)c1cc2c(F)cccc2s1 [Compound 61] this time
Result: 40

Problem: Same question, C[C@@H](Nc1ncc(C(F)(F)F)c(N)n1)c1cc2cccc(F)c2s1 [Compound 75] this time
Result: 40

---

# Test system: foxtail, giant (Setaria faberii)
# protocol_notes: Test A postemergence, giant foxtail
# Type: in vivo
# protocol_conditions: 125 g ai/ha, 0 to 100 scale, 0 no effect, 100 complete control
Provide the reported Plant response rating, Foxtail, Giant of each item.

Problem: Looking for the measured Plant response rating, Foxtail, Giant of CCC(Nc1ncc(C(F)(F)F)c(N)n1)c1coc2ccccc12 (racemic) [Compound 53] , can you help?
Result: 10

Problem: Same question, CC(Nc1ncc([N+](=O)[O-])c(N)n1)c1cc2ccccc2s1 (stereo not drawn) [Compound 99] this time
Result: 10

Problem: Same question, CC(Nc1ncc(S(C)(=O)=O)c(N)n1)c1cc2ccccc2s1 (stereo not drawn) [Compound 107] this time
Result: 10

---

# System: ducksalad (Heteranthera limosa)
# protocol_notes: Test B flooded paddy test, ducksalad
# Format: in vivo
# protocol_conditions: Flood, 250 g ai/ha, applied to paddy water, 2-leaf stage, visual evaluation after 13 to 15 d
measurement_name: Plant response rating, Ducksalad (0 to 100 scale, 0 is no effect, 100 is complete control)

Problem: Looking for the measured Plant response rating, Ducksalad (0 to 100 scale, 0 is no effect, 100 is complete control) of CC(Nc1ncc(C(F)(F)F)c(N)n1)c1csc2ccccc12 (stereo not shown) , can you help?
Result: 20

Problem: Same question, C[C@@H](Nc1nc(N)c(C(F)(F)F)c(C(F)(F)F)n1)c1cc2ccccc2o1 this time
Result: 0

Problem: Same question, Cc1ccc2c([C@H](Nc3ncc(C(F)(F)F)c(N)n3)C3CC3)coc2c1 this time
Result: 25

Problem: Same question, Nc1nc(N[C@@H](c2cc3ccccc3s2)C2CC2)ncc1C(F)(F)F this time
Result: 65

Problem: Same question, Cc1ccc2c(C(C)Nc3ncc(C(F)(F)F)c(N)n3)coc2c1 (stereo not shown) this time
Result: 30

Problem: Same question, Cc1ccc2c([C@@H](Nc3ncc(C(F)(F)F)c(N)n3)C3CC3)coc2c1 this time
Result: 0

Problem: Same question, CC(CCc1ccccc1)Nc1ncc(C(F)(F)F)c(N)n1 (stereo not shown) this time
Result: 0

Problem: Same question, CC(=O)c1cnc(NC(C)c2cc3ccccc3s2)nc1N (stereo not shown) this time
Result: 30

Problem: Same question, CC[C@H](COc1cc(C)cc(C)c1)Nc1ncc(C(F)(F)F)c(N)n1 this time
Result: 0

Problem: Same question, CC(F)c1nc(N[C@H](C)c2cc3ccccc3s2)nc(N)c1C(F)(F)F (stereo partly shown) this time
Result: 30

---

# Test system: blackgrass (Alopecurus myosuroides)
# protocol_notes: Test A postemergence, blackgrass
# Format: in vivo
# protocol_conditions: 500 g ai/ha, 0 to 100 scale, 0 no effect, 100 complete control
measurement_name: Plant response rating, Blackgrass
No unit in the answer, please; the number alone is enough.

Problem: Looking for the measured Plant response rating, Blackgrass of C[C@@H](Nc1ncc(C(F)(F)F)c(N)n1)c1coc2cc(Cl)ccc12 , can you help?
Result: 20

Problem: Same question, C[C@H](Nc1ncc(C(F)(F)F)c(N)n1)c1cc2ccccc2n1C this time
Result: 0

Problem: Same question, CC[C@@H](Nc1ncc(C(F)(F)F)c(N)n1)c1coc2ccccc12 this time
Result: 70

Problem: Same question, CC(Nc1ncc(S(C)(=O)=O)c(N)n1)c1cc2ccccc2s1 (stereo not drawn) this time
Result: 80

Problem: Same question, C[C@H](Nc1nc(N)c(C(F)(F)F)c(C(F)(F)F)n1)c1cc2ccccc2s1 this time
Result: 20

Problem: Same question, C[C@H](Nc1nc(N)c(C(F)(F)F)c(C(F)(F)F)n1)C1Cc2ccccc2C1 this time
Result: 0

---

# Tested on: ragweed (common ragweed, Ambrosia elatior)
# protocol_notes: Test A postemergence, ragweed
# Assay type: in vivo
# protocol_conditions: 125 g ai/ha, 0 to 100 scale, 0 no effect, 100 complete control
Provide the reported Plant response rating, Ragweed of each item.

Problem: For the record Cc1cccc2oc(C(C)Nc3ncc(C(F)(F)F)c(N)n3)cc12 (stereo not drawn) , what value of Plant response rating, Ragweed is listed for ragweed (common ragweed, Ambrosia elatior)?
Result: 30

Problem: Same question, C[C@H](Nc1ncc(C(F)(F)F)c(N)n1)c1csc2ccccc12 this time
Result: 30

Problem: Same question, Cc1ccc2c([C@@H](Nc3ncc(C(F)(F)F)c(N)n3)C3CC3)coc2c1 this time
Result: 0

Problem: Same question, C[C@@H](Nc1ncc(C(F)(F)F)c(N)n1)c1csc2ccccc12 this time
Result: 60

Problem: Same question, Nc1nc(NC(c2cc3ccccc3o2)C2CC2)ncc1C(F)(F)F (stereo not drawn) [Compound 88] this time
Result: 30

Problem: Same question, Cc1nc(NC(C)c2coc3ccccc23)nc(N)c1C(F)(F)F (stereo not drawn) this time
Result: 20
